measured-on: GlcNAc(b1-2)Man(a1-3)[GlcNAc(b1-2)Man(a1-6)]Man(b1-4)GlcNAc(b1-4)GlcNAc
protocol-details: glycan array binding signal (z-score within array); higher = stronger binding
stated-conditions: glycan notation: IUPAC condensed, linker removed
Many of the other results were omitted from the sample, so the strongest signals are more common in it than they were.
Consider the following binders; for each one, report its glycan array binding signal (z-score).
Answers are plain numbers.

Task: Name the recorded glycan array binding signal (z-score) for AcfC (Vibrio cholerae), Q57410 (protein) MKSKNRFLLISLLSFSTSVFADVNLYGPGGPHVPLIKVAESFEKSQSKRVNITFGPQATWNDKAKKNADILFGASEHSALAIAEGHSERFSKFNIHPVFMREAIILVKKGNPKNIKGMADLLKPGIGIVVNDGAGVSNTSGTAVWEDSVGRMKNVEKLQAFRSNIHVFAPNSGSARKAFVDGEDIDAWITWVDWAIANPTIGDMVRMEDEYRIYRDFNVVLAKNPSSEAIDFFDYLTKSKDAEAIFQHYGWFK .
Output: 0.375

Hey, quick one: what's glycan array binding signal (z-score) for each of these?
1. Mg1lysM (Mycosphaerella graminicola) (protein) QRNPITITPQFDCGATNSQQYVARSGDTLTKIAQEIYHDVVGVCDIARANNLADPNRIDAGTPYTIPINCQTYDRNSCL
2. Gz-CVNH (Gibberella zeae) (protein) MGSSHHHHHHSSGLVPRGSHMGNFHESSNNIWLEDGHILHAECGNGEGDYVESTLDLDYYIGNDDGSFSWGGENFSGSASNITLDIEGDDNIPVLRAELNPMDGDPVEANVNLSERIGNDCGTLIFLA

Output:
1: -0.057; 2: -0.129
